Plant response rating, Johnsongrass values, listed per item
Tested on: johnsongrass (Sorghum halepense)
ASSAY_PROCEDURE: Test D pre-/postemergence plant response
Assay type: in vivo
CONDITION_SET: Postemergence, 62 g ai/ha; scale 0 to 100, 0 no effect, 100 complete control
Give your answer as a number; write no unit.

// worked examples, Plant response rating, Johnsongrass included
FC(Cl)c1cc(-c2ccccc2Oc2ncc(Cl)cn2)no1 (stereo not drawn)
20
FC(F)(F)c1cc(-c2c(Cl)cccc2Oc2ncc(Cl)cn2)no1
0
Cc1cc(-c2ccccc2Oc2ncc(Cl)cn2)no1
5
N#Cc1cccc(Oc2ncc(Cl)cn2)c1-c1cc(C(F)F)on1
5
FCc1cc(-c2ccccc2Oc2ncc(Cl)cn2)on1
5

Tell me its Plant response rating, Johnsongrass on johnsongrass (Sorghum halepense): `Cc1cc(-c2ccccc2Oc2ncc(Cl)cn2)on1`
0

Tell me its Plant response rating, Johnsongrass on johnsongrass (Sorghum halepense): `FC(F)(Cl)c1cc(-c2ccccc2Oc2ncc(Cl)cn2)no1`
30

Tell me its Plant response rating, Johnsongrass on johnsongrass (Sorghum halepense): `Fc1ccc(Oc2ncc(Cl)cn2)c(-c2cc(C(F)F)on2)c1Cl`
5

Tell me its Plant response rating, Johnsongrass on johnsongrass (Sorghum halepense): `FCc1cc(-c2c(F)cccc2Oc2ncc(Cl)cn2)no1`
5

---

Tested on: wheat (Triticum aestivum)
ASSAY_PROCEDURE: Test B pre-/postemergence plant response
Assay type: in vivo
CONDITION_SET: 125 g ai/ha, postemergence; 0 to 100 scale, 0 no effect, 100 complete control
MEASUREMENT_NAME: Plant response rating, Wheat

Clc1cnc(Oc2ccccc2-c2ccns2)nc1
0
Fc1ccc(Oc2ncc(Cl)cn2)c(-c2cc(C(F)F)on2)c1Cl
0
FCc1cc(-c2ccccc2Oc2ncc(Cl)cn2)on1
0
Fc1cccc(Oc2ncc(Br)cn2)c1-c1cc(C(F)F)on1
60
Cc1c(-c2ccccc2Oc2ncc(Cl)cn2)noc1C(F)(F)F
10
FC(F)(F)COc1cc(-c2ccccc2Oc2ncc(Cl)cn2)on1
0

Tell me its Plant response rating, Wheat on wheat (Triticum aestivum): `FC(F)(F)c1nccc(-c2ccccc2Oc2ncc(Cl)cn2)n1`
0

Tell me its Plant response rating, Wheat on wheat (Triticum aestivum): `FC(F)(F)c1cc(-c2ccccc2Oc2ncc(Br)cn2)on1`
0

Tell me its Plant response rating, Wheat on wheat (Triticum aestivum): `FC(F)(Cl)c1cc(-c2ccccc2Oc2ncc(Cl)cn2)no1`
30

---

System: giant foxtail (Setaria faberii)
ASSAY_PROCEDURE: Test B pre-/postemergence plant response
Format: in vivo
CONDITION_SET: Postemergence, 31 g ai/ha; 0 to 100 scale (0 no effect, 100 complete control)
Description: […]
Plant response rating, Foxtail, Giant values, listed per item
Give your answer as a number; write no unit.

FC(F)(F)COc1cc(-c2ccccc2Oc2ncc(Cl)cn2)on1
20

Assign Plant response rating, Foxtail, Giant to the following record: `Clc1cnc(Oc2ccccc2-c2cocn2)nc1`
0

Assign Plant response rating, Foxtail, Giant to the following record: `Fc1cnc(Oc2cccc(F)c2-c2cnccn2)nc1`
0

Assign Plant response rating, Foxtail, Giant to the following record: `Fc1cccc(Oc2ncc(Cl)cn2)c1-c1cnccn1`
10

Assign Plant response rating, Foxtail, Giant to the following record: `Clc1cnc(Oc2ccccc2-c2ccno2)nc1`
0

Assign Plant response rating, Foxtail, Giant to the following record: `N#Cc1ccnc(-c2ccccc2Oc2ncc(Cl)cn2)c1`
0

Assign Plant response rating, Foxtail, Giant to the following record: `CC(F)(F)c1cc(-c2ccccc2Oc2ncc(Cl)cn2)on1`
10

Assign Plant response rating, Foxtail, Giant to the following record: `Cc1ccnc(-c2ccccc2Oc2ncc(Cl)cn2)c1`
0

Assign Plant response rating, Foxtail, Giant to the following record: `Clc1cnc(Oc2ccccc2-c2cnccn2)nc1`
0
